Each entry below lists one item and its recorded pKi value.
Molecular target: T1, human sirtuin 2 (human, UniProt Q8IXJ6 1-389)
T1 construct: sirtuin 2 (Sirt2), human; also called Sirt2
T1 sequence (looked up): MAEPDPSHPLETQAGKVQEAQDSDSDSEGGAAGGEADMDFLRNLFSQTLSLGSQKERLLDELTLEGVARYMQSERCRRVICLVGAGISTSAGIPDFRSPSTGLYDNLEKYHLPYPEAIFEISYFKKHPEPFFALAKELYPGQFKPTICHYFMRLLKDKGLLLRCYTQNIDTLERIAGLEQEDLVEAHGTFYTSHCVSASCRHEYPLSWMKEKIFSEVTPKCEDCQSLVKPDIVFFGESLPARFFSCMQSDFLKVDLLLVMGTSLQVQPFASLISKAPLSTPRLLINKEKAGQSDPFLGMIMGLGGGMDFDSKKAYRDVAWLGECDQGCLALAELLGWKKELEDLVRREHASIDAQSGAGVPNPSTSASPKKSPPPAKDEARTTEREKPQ
Test: enzyme inhibition kinetics (continuous fluorescence activity assay); 96-well MTP fluorescence reader; kcat and KM for substrate 3 recorded at varying inhibitor concentrations (0.01-600 μM); 500 μM NAD+; 20 mM TRIS/HCl pH 7.8, 150 mM NaCl, 5 mM MgCl2; 37 °C; Ki from competitive and non-competitive inhibition models
Conditions: both partners purified
Primed or numbered codes have the meaning given here. *: point of attachment. thiosuccinyl = lysine reacted with methyl 3-[(methylthio)thiocarbonyl]propanoate, then 1 M NaOH (thioxo peptide), O=C(O)CCC(=S)*; thioacetyl = lysine reacted with ethyl dithioacetate (thioxo peptide), CC(=S)*; Bz′ = not defined here
Remember, pKi is on a log scale: it is -log10 of the molar concentration.

- binder: "{Bz′}-GVLK(thiosuccinyl)EYGV-NH2 (source: synthetic peptide) [thioxo peptide 11 based on the CPS1 peptide]"
  reported.measurement: 4.30

Shift focus to the following entry.
[Q] Item {Bz′}-GVLK(thioacetyl)EYGV-NH2 (source: synthetic peptide) [thioxo peptide 10 based on the CPS1 peptide] has what recorded pKi?
[A] 6.52
